Assay: Cytotoxicity against human HeLa cells assessed as survival rate at 30 uM incubated for 24 hrs by MTT assay relative to control
Type: cell-based
Conditions: read-out: Activity

- Compound: "NS(=O)(=O)NCCNc1nonc1C(=NO)Nc1ccc(F)c(Br)c1"
  viability at 24 h, 30 µM (%): 92
- Compound: "CN(C)c1ccc(C(=O)N/N=C/c2c(O)ccc3ccccc23)cc1"
  viability at 24 h, 30 µM (%): 114
- Compound: "CN(C)c1ccc(/C=C(/NC(=O)c2ccccc2Cl)C(=O)N/N=C/c2c(O)ccc3ccccc23)cc1"
  viability at 24 h, 30 µM (%): 66
- Compound: "Cc1ccc(OCC(=O)N/N=C/c2c(O)ccc3ccccc23)c(C)c1"
  viability at 24 h, 30 µM (%): 80
- Compound: "CCC(Nc1ccc(Cl)cc1C)C(=O)N/N=C/c1c(O)ccc2ccccc12 (stereo not given)"
  viability at 24 h, 30 µM (%): 105
- Compound: "COc1cccc(NCc2nnc3n2N=C(c2cccc(OC)c2)CS3)c1"
  viability at 24 h, 30 µM (%): 104
- Compound: "O=C(N/N=C/c1c(O)ccc2ccccc12)C(=O)Nc1cccc(C(F)(F)F)c1"
  viability at 24 h, 30 µM (%): 59
- Compound: "CCOc1ccc(/C=N/NC(=O)c2c(O)ccc3ccccc23)cc1"
  viability at 24 h, 30 µM (%): 112
- Compound: "O=C(CSc1ccc(Cl)cc1)N/N=C/c1c(O)ccc2ccccc12"
  viability at 24 h, 30 µM (%): 106
- Compound: "O=C(Cn1cnc2scc(-c3ccccc3)c2c1=O)NC(=O)Nc1ccccc1"
  viability at 24 h, 30 µM (%): 85
- Compound: "CCNC(=O)C(=O)N/N=C/c1c(O)ccc2ccccc12"
  viability at 24 h, 30 µM (%): 102
- Compound: "COc1ccccc1NCC(=O)N/N=C/c1c(O)ccc2ccccc12"
  viability at 24 h, 30 µM (%): 114
- Compound: "Cc1ccc(-c2csc3ncn(CC(=O)Nc4cccc5ccccc45)c(=O)c23)cc1"
  viability at 24 h, 30 µM (%): 99
- Compound: "COc1ccc(NC(=O)Cn2cnc3scc(-c4ccc(C)cc4)c3c2=O)cc1"
  viability at 24 h, 30 µM (%): 107
- Compound: "Oc1ccccc1CN1CCCC(c2n[nH]cc2-c2ccc(Cl)cc2)C1 (stereo not given)"
  viability at 24 h, 30 µM (%): 101
- Compound: "Fc1ccc(C2=Nn3c(CNc4ccc5c(c4)OCO5)nnc3SC2)cc1"
  viability at 24 h, 30 µM (%): 100
- Compound: "COc1ccc(NC(=O)Cn2cnc3scc(-c4ccc(OC)c(OC)c4)c3c2=O)cc1"
  viability at 24 h, 30 µM (%): 101
- Compound: "COc1cccc(NCc2nnc3n2N=C(c2ccc(Br)cc2)CS3)c1"
  viability at 24 h, 30 µM (%): 101
- Compound: "Cc1sc2ncn(CC(=O)NCc3ccccc3)c(=O)c2c1-c1ccc(Br)cc1"
  viability at 24 h, 30 µM (%): 84
- Compound: "O=C(Cn1cnc2scc(-c3ccc(F)cc3)c2c1=O)NC(=O)NCc1ccccc1"
  viability at 24 h, 30 µM (%): 100
- Compound: "Cc1nc2ccccc2n1Cc1nnc2n1N=C(c1ccc(Cl)cc1)CS2"
  viability at 24 h, 30 µM (%): 85
- Compound: "Cc1ccccc1NC(=O)c1cc2ccccc2c(/C=N/Nc2nc3ccccc3s2)c1O"
  viability at 24 h, 30 µM (%): 101
- Compound: "O=C(Cc1ccccc1)N/N=C/c1c(O)ccc2cc([N+](=O)[O-])ccc12"
  viability at 24 h, 30 µM (%): 108
- Compound: "O=C(Cc1ccc([N+](=O)[O-])cc1)N/N=C/c1c(O)ccc2ccccc12"
  viability at 24 h, 30 µM (%): 106
- Compound: "COc1ccccc1C(=O)N/N=C/c1c(O)ccc2ccccc12"
  viability at 24 h, 30 µM (%): 100
- Compound: "O=C(N/N=C/c1c(O)ccc2ccccc12)Nc1ccccc1"
  viability at 24 h, 30 µM (%): 102
- Compound: "O=C(Cn1cnc2scc(-c3ccc(Cl)cc3)c2c1=O)NCc1ccco1"
  viability at 24 h, 30 µM (%): 108
- Compound: "c1ccc(C2=Nn3c(CN4CCc5ccccc54)nnc3SC2)cc1"
  viability at 24 h, 30 µM (%): 98
- Compound: "Oc1ccc2ccccc2c1/C=N/Nc1nccs1"
  viability at 24 h, 30 µM (%): 99
- Compound: "Cc1ccc(NCc2nnc3n2N=C(c2ccc(Cl)cc2)CS3)cc1"
  viability at 24 h, 30 µM (%): 100
- Compound: "COc1ccccc1N(CC(=O)N/N=C/c1c(O)ccc2ccccc12)S(C)(=O)=O"
  viability at 24 h, 30 µM (%): 89
- Compound: "CCOc1ccc(NCc2nnc3n2N=C(c2cccs2)CS3)cc1"
  viability at 24 h, 30 µM (%): 101
- Compound: "Cc1ccc(C2=Nn3c(CNc4ccc(F)cc4)nnc3SC2)cc1"
  viability at 24 h, 30 µM (%): 110
- Compound: "COc1ccc(CC(=O)N/N=C/c2c(O)ccc3ccccc23)cc1"
  viability at 24 h, 30 µM (%): 91
- Compound: "NS(=O)(=O)c1ccc(NC(=O)Cn2cnc3scc(-c4ccco4)c3c2=O)cc1"
  viability at 24 h, 30 µM (%): 77

Source: ChEMBL document CHEMBL4406863
